From: ChEMBL document CHEMBL1139192

system-name: Serine/threonine-protein kinase N2 (Homo sapiens)
experiment-description: Residual activity of human PRK2 at 1 uM relative to control
value-kind: residual activity (%)
Answer with a number only, understood to be in %.

{"mol-smiles": "CN(C)c1cc2cc(n1)CCCn1cc(c3ccccc31)C1=C(C(=O)NC1=O)c1cn(c3ccccc13)CCC2", "system-name": "Serine/threonine-protein kinase N2 (Homo sapiens)", "reading": 113}
{"mol-smiles": "CN(C)c1nc2ccc1CCCn1cc(c3ccccc31)C1=C(C(=O)NC1=O)c1cn(c3ccccc13)CC2", "system-name": "Serine/threonine-protein kinase N2 (Homo sapiens)", "reading": 106}
{"mol-smiles": "O=C1NC(=O)C2=C1c1cn(c3ccccc13)CCCc1cc(nc(N3CCCC3)c1)CCCn1cc2c2ccccc21", "system-name": "Serine/threonine-protein kinase N2 (Homo sapiens)", "reading": 110}

[ask] Given the entry O=C1NC(=O)C2=C1c1cn(c3ccccc13)CCCc1ccc(c(N3CCCC3)n1)CCCn1cc2c2ccccc21 , what residual activity was observed with Serine/threonine-protein kinase N2 (Homo sapiens)?
[reply] 126

----------
system-name: Tyrosine-protein kinase ABL2 (Mus musculus) (UniProt Q4JIM5)
Sequence (Q4JIM5 whole entry): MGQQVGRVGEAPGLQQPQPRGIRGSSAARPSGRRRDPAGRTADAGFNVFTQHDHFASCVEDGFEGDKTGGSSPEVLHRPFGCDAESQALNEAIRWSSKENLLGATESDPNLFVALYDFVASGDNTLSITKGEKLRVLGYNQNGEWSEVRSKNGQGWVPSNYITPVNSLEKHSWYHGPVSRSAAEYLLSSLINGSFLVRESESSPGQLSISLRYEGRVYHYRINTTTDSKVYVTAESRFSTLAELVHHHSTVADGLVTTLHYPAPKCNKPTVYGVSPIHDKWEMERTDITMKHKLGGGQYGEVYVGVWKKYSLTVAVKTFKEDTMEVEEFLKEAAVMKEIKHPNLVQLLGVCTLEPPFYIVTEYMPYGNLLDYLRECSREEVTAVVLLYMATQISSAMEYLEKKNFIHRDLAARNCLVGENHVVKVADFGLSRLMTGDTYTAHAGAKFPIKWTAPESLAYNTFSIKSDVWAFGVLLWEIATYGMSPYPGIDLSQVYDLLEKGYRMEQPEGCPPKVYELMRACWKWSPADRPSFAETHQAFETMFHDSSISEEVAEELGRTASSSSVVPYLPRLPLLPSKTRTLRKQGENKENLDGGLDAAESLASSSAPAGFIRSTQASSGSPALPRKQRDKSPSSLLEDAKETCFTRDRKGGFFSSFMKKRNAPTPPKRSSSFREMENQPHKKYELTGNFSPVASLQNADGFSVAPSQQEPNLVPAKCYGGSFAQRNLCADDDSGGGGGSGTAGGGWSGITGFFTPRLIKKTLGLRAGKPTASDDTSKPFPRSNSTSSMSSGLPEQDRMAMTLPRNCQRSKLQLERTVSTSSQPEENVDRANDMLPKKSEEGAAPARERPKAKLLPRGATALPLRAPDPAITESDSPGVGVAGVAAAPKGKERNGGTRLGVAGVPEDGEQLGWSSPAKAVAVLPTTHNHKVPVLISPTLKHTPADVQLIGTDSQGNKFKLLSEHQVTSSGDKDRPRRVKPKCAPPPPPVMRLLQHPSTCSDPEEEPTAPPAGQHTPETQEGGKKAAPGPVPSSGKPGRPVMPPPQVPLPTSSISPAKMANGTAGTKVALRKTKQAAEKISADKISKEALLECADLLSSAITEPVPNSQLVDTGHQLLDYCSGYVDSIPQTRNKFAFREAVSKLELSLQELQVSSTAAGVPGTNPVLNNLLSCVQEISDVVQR
experiment-description: Residual activity of mouse Arg at 1 uM relative to control
Item-by-item account of residual activity

{"mol-smiles": "O=C1NC(=O)C2=C1c1cn(c3ccccc13)CCCc1ccc(c(N3CCCC3)n1)CCCn1cc2c2ccccc21", "residual activity": "130%"}
{"mol-smiles": "O=C1NC(=O)C2=C1c1cn(c3ccccc13)CCCc1cc(nc(N3CCCC3)c1)CCCn1cc2c2ccccc21", "residual activity": "121%"}
{"mol-smiles": "CN(C)c1nc2ccc1CCCn1cc(c3ccccc31)C1=C(C(=O)NC1=O)c1cn(c3ccccc13)CC2", "residual activity": "113%"}

We now examine a further molecule.
[ask] Item CN(C)c1cc2cc(n1)CCCn1cc(c3ccccc31)C1=C(C(=O)NC1=O)c1cn(c3ccccc13)CCC2 has what recorded residual activity?
[reply] 129%

----------
system-name: Dual specificity mitogen-activated protein kinase kinase 7 (Homo sapiens)
experiment-description: Inhibition of human MKK7-beta at 1 uM relative to control; values are per cent of control
value-kind: residual activity (%)
Answer with a number only, understood to be in %.

{"mol-smiles": "O=C1NC(=O)C2=C1c1cn(c3ccccc13)CCCc1cc(nc(N3CCCC3)c1)CCCn1cc2c2ccccc21", "residual activity (%)": 97}
{"mol-smiles": "O=C1NC(=O)C2=C1c1cn(c3ccccc13)CCCc1ccc(c(N3CCCC3)n1)CCCn1cc2c2ccccc21", "residual activity (%)": 85}
{"mol-smiles": "CN(C)c1cc2cc(n1)CCCn1cc(c3ccccc31)C1=C(C(=O)NC1=O)c1cn(c3ccccc13)CCC2", "residual activity (%)": 78}

We now examine a further molecule.
[ask] Item CN(C)c1nc2ccc1CCCn1cc(c3ccccc31)C1=C(C(=O)NC1=O)c1cn(c3ccccc13)CC2 has what recorded residual activity?
[reply] 88

----------
system-name: Serine/threonine-protein kinase PAK 2 (Homo sapiens) (UniProt Q13177)
Sequence (Q13177 whole entry): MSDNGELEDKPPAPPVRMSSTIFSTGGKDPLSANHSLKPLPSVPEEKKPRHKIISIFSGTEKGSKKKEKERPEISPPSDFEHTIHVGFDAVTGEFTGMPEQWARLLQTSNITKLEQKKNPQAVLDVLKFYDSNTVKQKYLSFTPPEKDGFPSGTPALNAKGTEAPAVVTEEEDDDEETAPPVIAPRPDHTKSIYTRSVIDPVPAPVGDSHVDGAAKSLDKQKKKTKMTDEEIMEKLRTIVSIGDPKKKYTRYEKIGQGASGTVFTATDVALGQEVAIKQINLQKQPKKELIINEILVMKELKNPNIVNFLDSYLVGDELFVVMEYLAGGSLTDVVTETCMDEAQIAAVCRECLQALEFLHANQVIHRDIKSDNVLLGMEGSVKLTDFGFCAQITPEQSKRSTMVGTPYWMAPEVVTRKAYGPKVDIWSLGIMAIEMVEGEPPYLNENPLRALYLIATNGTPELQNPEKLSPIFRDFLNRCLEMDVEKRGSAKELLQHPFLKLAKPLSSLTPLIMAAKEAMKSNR
experiment-description: Inhibition of human PAK2 at 1 uM relative to control; values are per cent of control
value-kind: residual activity (%)
Answer with a number only, understood to be in %.

{"mol-smiles": "O=C1NC(=O)C2=C1c1cn(c3ccccc13)CCCc1cc(nc(N3CCCC3)c1)CCCn1cc2c2ccccc21", "units-text": "%", "residual activity": 100}
{"mol-smiles": "CN(C)c1cc2cc(n1)CCCn1cc(c3ccccc31)C1=C(C(=O)NC1=O)c1cn(c3ccccc13)CCC2", "units-text": "%", "residual activity": 103}
{"mol-smiles": "O=C1NC(=O)C2=C1c1cn(c3ccccc13)CCCc1ccc(c(N3CCCC3)n1)CCCn1cc2c2ccccc21", "units-text": "%", "residual activity": 102}

We now examine a further compound.
[ask] Item CN(C)c1nc2ccc1CCCn1cc(c3ccccc31)C1=C(C(=O)NC1=O)c1cn(c3ccccc13)CC2 has what recorded residual activity?
[reply] 93

----------
Item-by-item account of residual activity
system-name: Protein kinase C alpha type (Homo sapiens)
experiment-description: Residual activity of human PKCalpha at 1 uM relative to control
Answer with the figure and its unit, nothing else.

{"mol-smiles": "CN(C)c1cc2cc(n1)CCCn1cc(c3ccccc31)C1=C(C(=O)NC1=O)c1cn(c3ccccc13)CCC2", "residual activity": "74%"}
{"mol-smiles": "O=C1NC(=O)C2=C1c1cn(c3ccccc13)CCCc1cc(nc(N3CCCC3)c1)CCCn1cc2c2ccccc21", "residual activity": "82%"}

[ask] Item O=C1NC(=O)C2=C1c1cn(c3ccccc13)CCCc1ccc(c(N3CCCC3)n1)CCCn1cc2c2ccccc21 has what recorded residual activity?
[reply] 83%

[ask] Item CN(C)c1nc2ccc1CCCn1cc(c3ccccc31)C1=C(C(=O)NC1=O)c1cn(c3ccccc13)CC2 has what recorded residual activity?
[reply] 68%

----------
Item-by-item account of residual activity
system-name: Serine/threonine-protein kinase Sgk1 (Homo sapiens)
experiment-description: Inhibition of human SGK at 1 uM relative to control; values are per cent of control

Past entries and their recorded results:
{"mol-smiles": "CN(C)c1nc2ccc1CCCn1cc(c3ccccc31)C1=C(C(=O)NC1=O)c1cn(c3ccccc13)CC2", "residual activity": "93%"}
{"mol-smiles": "O=C1NC(=O)C2=C1c1cn(c3ccccc13)CCCc1cc(nc(N3CCCC3)c1)CCCn1cc2c2ccccc21", "residual activity": "109%"}
{"mol-smiles": "O=C1NC(=O)C2=C1c1cn(c3ccccc13)CCCc1ccc(c(N3CCCC3)n1)CCCn1cc2c2ccccc21", "residual activity": "93%"}

We now examine a further molecule.
[ask] Given the entry CN(C)c1cc2cc(n1)CCCn1cc(c3ccccc31)C1=C(C(=O)NC1=O)c1cn(c3ccccc13)CCC2 , what residual activity was observed with Serine/threonine-protein kinase Sgk1 (Homo sapiens)?
[reply] 105%

----------
Item-by-item account of residual activity
system-name: Serine/threonine-protein kinase Chk2 (Homo sapiens)
experiment-description: Inhibition of human CHK2 at 1 uM relative to control; values are per cent of control
Answer with a number only, understood to be in %.

Past entries and their recorded results:
{"mol-smiles": "CN(C)c1cc2cc(n1)CCCn1cc(c3ccccc31)C1=C(C(=O)NC1=O)c1cn(c3ccccc13)CCC2", "reading": 94}
{"mol-smiles": "O=C1NC(=O)C2=C1c1cn(c3ccccc13)CCCc1ccc(c(N3CCCC3)n1)CCCn1cc2c2ccccc21", "reading": 91}
{"mol-smiles": "O=C1NC(=O)C2=C1c1cn(c3ccccc13)CCCc1cc(nc(N3CCCC3)c1)CCCn1cc2c2ccccc21", "reading": 84}

We now examine a further compound.
[ask] Given the entry CN(C)c1nc2ccc1CCCn1cc(c3ccccc31)C1=C(C(=O)NC1=O)c1cn(c3ccccc13)CC2 , what residual activity was observed with Serine/threonine-protein kinase Chk2 (Homo sapiens)?
[reply] 91

----------
system-name: Mitogen-activated protein kinase 9 (Homo sapiens) (UniProt P45984)
Sequence (P45984 whole entry, looked up): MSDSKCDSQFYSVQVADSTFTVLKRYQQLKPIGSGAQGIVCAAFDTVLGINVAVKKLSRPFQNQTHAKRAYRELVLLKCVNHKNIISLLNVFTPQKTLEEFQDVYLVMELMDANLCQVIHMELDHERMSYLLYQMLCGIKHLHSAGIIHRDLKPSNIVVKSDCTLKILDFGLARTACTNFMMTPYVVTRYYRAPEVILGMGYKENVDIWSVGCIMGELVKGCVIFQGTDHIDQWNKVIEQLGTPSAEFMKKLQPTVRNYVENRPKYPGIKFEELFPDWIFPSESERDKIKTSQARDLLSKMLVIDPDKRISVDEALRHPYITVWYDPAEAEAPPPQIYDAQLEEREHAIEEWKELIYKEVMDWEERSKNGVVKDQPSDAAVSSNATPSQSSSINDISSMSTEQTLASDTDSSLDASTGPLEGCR
experiment-description: Inhibition of human JNK2-alpha-2 at 1 uM relative to control; values are per cent of control
value-kind: residual activity (%)
Answer with a number only, understood to be in %.

Past entries and their recorded results:
{"mol-smiles": "CN(C)c1cc2cc(n1)CCCn1cc(c3ccccc31)C1=C(C(=O)NC1=O)c1cn(c3ccccc13)CCC2", "value-kind": "residual activity", "reading": 106}
{"mol-smiles": "CN(C)c1nc2ccc1CCCn1cc(c3ccccc31)C1=C(C(=O)NC1=O)c1cn(c3ccccc13)CC2", "value-kind": "residual activity", "reading": 96}
{"mol-smiles": "O=C1NC(=O)C2=C1c1cn(c3ccccc13)CCCc1ccc(c(N3CCCC3)n1)CCCn1cc2c2ccccc21", "value-kind": "residual activity", "reading": 110}

[ask] Given the entry O=C1NC(=O)C2=C1c1cn(c3ccccc13)CCCc1cc(nc(N3CCCC3)c1)CCCn1cc2c2ccccc21 , what residual activity was observed with Mitogen-activated protein kinase 9 (Homo sapiens) (UniProt P45984)?
[reply] 114

----------
system-name: Aurora kinase A (Homo sapiens) (UniProt O14965)
Sequence (O14965 whole entry): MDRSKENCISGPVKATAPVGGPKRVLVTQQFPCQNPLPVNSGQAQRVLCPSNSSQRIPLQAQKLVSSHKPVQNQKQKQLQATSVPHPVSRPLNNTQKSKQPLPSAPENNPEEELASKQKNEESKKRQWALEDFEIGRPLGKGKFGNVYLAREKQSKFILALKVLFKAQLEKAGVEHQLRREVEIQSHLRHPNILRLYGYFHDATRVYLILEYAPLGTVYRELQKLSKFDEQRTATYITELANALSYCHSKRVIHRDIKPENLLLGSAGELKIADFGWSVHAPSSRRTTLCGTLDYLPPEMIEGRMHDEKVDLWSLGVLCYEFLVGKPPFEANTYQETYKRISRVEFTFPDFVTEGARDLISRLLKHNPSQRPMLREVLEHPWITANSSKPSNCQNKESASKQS
experiment-description: Residual activity of human Aurora A at 1 uM relative to control
value-kind: residual activity (%)
Answer with a number only, understood to be in %.

{"mol-smiles": "CN(C)c1cc2cc(n1)CCCn1cc(c3ccccc31)C1=C(C(=O)NC1=O)c1cn(c3ccccc13)CCC2", "residual activity, %": 111}
{"mol-smiles": "O=C1NC(=O)C2=C1c1cn(c3ccccc13)CCCc1cc(nc(N3CCCC3)c1)CCCn1cc2c2ccccc21", "residual activity, %": 111}

[ask] Item CN(C)c1nc2ccc1CCCn1cc(c3ccccc31)C1=C(C(=O)NC1=O)c1cn(c3ccccc13)CC2 has what recorded residual activity?
[reply] 109

[ask] Item O=C1NC(=O)C2=C1c1cn(c3ccccc13)CCCc1ccc(c(N3CCCC3)n1)CCCn1cc2c2ccccc21 has what recorded residual activity?
[reply] 106
